This collection of values is drawn from patent US20240272170A1.

target: WA peptide (Octet assay of PS557 variants); assay: Octet (BLI), peptide on sensor, response after 200 s association
QUANTITY_NAME: Octet response (nm)

(A) PS838 (designed binder) MPTAASATESAIEDTPAPARPEVDGRTKPKRQPRYHVVLWDDDDHTYQYVVVMLQSLFGHPRERGYRLAKEMDTQGRVIVLTTTREHAELKRDQIHAFGYDRLLARSKGSMKASIEAEE
(B) PS809 (designed binder) MPTAASATESAIEDTPAPARPEVDGRTKPKRQPRYHVVLWNDDDHTYQYVVVMLQSLFGHPPERGYRLAKEMDTQGRVIVLTTTREHAELKRDQIHAFGYDRLLARSKGSMKASIEAEE
Prompt line: Which of the two items, A and B , has the greater recorded Octet response? When you have decided, please share the label of that item.
Response line: A
(A: 0.0581 nm, B: 0.0117 nm)
